- experimentalSystem: T1, Recombinant Human TNF-α/TNFSF1A (human, UniProt P01375 77-233)
- T1 construct: Bought reagent (R&D Systems 210-TA); also called hTNF-α; huTNF-α
- T1 sequence (P01375 77-233 limits assumed): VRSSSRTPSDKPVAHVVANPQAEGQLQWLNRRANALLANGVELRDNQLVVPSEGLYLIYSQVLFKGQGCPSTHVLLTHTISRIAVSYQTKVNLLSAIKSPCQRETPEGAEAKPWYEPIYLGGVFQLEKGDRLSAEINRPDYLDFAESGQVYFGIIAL
- assayProtocol: SPR (Biacore), antibody captured, TNF-α in solution
Collected koff values appear next to each entry.
Please state the figure in s⁻¹; there is no need to write the unit.

# annotated cases, reported koff shown
AB253 (antibody, V domains shown, also called hMAK195VH.2 / hMAK195VL.1a) VH: EVQLVESGGGLVQPGGSLRLSCAASGFTFSDYGVNWVRQAPGKGLEWVSMIWGDGSTDYDSTLKSRFTISRDNSKNTLYLQMNSLRAEDTAVYYCAREWHHGPVAYWGQGTLVTVSS VL: DIQMTQSPSSLSASVGDRVTITCKASQAVSSAVAWYQQKPGKSPKLLIYWASTRHTGVPSRFSGSGSGTDFTLTISSLQPEDFATYYCQQHYSTPFTFGQGTKLEIK: 0.000221
AB244 (antibody, V domains shown, also called hMAK195VH.1a / hMAK195VL.1) VH: EVQLQESGPGLVKPSETLSLTCTVSGFSLSDYGVNWVRQPPGKGLEWLGMIWGDGSTDYDSTLKSRLTISKDNSKSQISLKLSSVTAADTAVYYCAREWHHGPVAYWGQGTLVTVSS VL: DIQMTQSPSSLSASVGDRVTITCKASQAVSSAVAWYQQKPGKAPKLLIYWASTRHTGVPSRFSGSGSGTDFTLTISSLQPEDFATYYCQQHYSTPFTFGQGTKLEIK: 0.000335

Next item in the queue.
I'd like to know its koff. The binder in question is AB255 (antibody, V domains shown, also called hMAK195VH.2 / hMAK195VL.2a) VH: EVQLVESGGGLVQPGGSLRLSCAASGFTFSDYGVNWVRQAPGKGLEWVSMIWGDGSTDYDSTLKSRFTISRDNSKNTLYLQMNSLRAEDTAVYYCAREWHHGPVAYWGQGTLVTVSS VL: EIVMTQSPATLSLSPGERATLSCKASQAVSSAVAWYQQKPGQSPRLLIYWASTRHTGVPARFSGSGSGTDFTLTISSLQPEDFAVYYCQQHYSTPFTFGQGTKLEIK
0.000384
